Tested on: jimpy (Plp1 jimpy) mouse iPSC-derived oligodendrocyte progenitor cells
Assay: total cell number (DAPI+ nuclei) relative to DMSO vehicle control (SDs above negative control mean); higher = more surviving cells
Conditions: 10 µM; 3 days
Whole data set: some 2,600 compounds, median “total cell number (DAPI+ nuclei) relative to DMSO vehicle control” near -1.4, cut for the lowest 2% near -23. Many of the other results were omitted from the sample, so the lowest values are more common in it than they were.
QUANTITY_KIND: total cell number
Please give the numeric answer without any surrounding text.

Worked examples, 3 compounds total:
COMPOUND | QUANTITY_KIND | MEASURED_VALUE
CN(NC(=O)CC(=O)NN(C)C(=S)c1ccccc1)C(=S)c1ccccc1 [Elesclomol (STA-4783)] | total cell number | -1.04
CC(C)(CO)Cc1cc(C(C)(C)C)c(O)c(C(C)(C)C)c1 | total cell number | 1.01
Cc1cnc(Nc2ccc(OCCN3CCCC3)cc2)nc1Nc1cccc(S(=O)(=O)NC(C)(C)C)c1 | total cell number | -12.3

# total cell number measured on jimpy (Plp1 jimpy) mouse iPSC-derived oligodendrocyte progenitor cells for item CSc1nc(N)c2ncn([C@@H]3O[C@H](COP(=O)(O)OP(=O)(O)OP(=O)(O)O)[C@H](O)C3O)c2n1 (stereo partly drawn) [2-Methylthioadenosine triphosphate tetrasodium] = 1.81

Field total cell number (system: jimpy (Plp1 jimpy) mouse iPSC-derived oligodendrocyte progenitor cells) for entry `C=C1C[C@@]23CC[C@H]4[C@@](C)(CCC[C@@]4(C)C(=O)O)[C@@H]2CC[C@]1(O)C3` = -0.619

Sample `Cc1cc(C)c(CNC(=O)c2cc(-c3ccc(CN4CCOCC4)cc3)cc3c2cnn3C2CCCC2)c(=O)[nH]1` , system: jimpy (Plp1 jimpy) mouse iPSC-derived oligodendrocyte progenitor cells. Its total cell number is 7.3

Here NCC(O)c1ccc(O)c(O)c1 (racemic) [(±)-Norepinephrine (+)bitartrate] was tested on jimpy (Plp1 jimpy) mouse iPSC-derived oligodendrocyte progenitor cells, and its total cell number came to 0.169

Recorded total cell number for `C=CC(=O)Nc1cccc(Nc2nc(Nc3ccc(OCCOC)cc3)ncc2F)c1` on jimpy (Plp1 jimpy) mouse iPSC-derived oligodendrocyte progenitor cells was -15.3

###

System: jimpy (Plp1 jimpy) mouse iPSC-derived oligodendrocyte progenitor cells
Experiment: total cell number (DAPI+ nuclei) relative to DMSO vehicle control (SDs above negative control mean); higher = more surviving cells
Details: 10 µM; 3 days
The full ranking holds about 2,600 compounds; the median of “total cell number (DAPI+ nuclei) relative to DMSO vehicle control” is about -1.4, and the lowest 2% start at about -23. For the sample, the lowest values were picked, then their nearest neighbours and some compounds at random.
Reported total cell number is given for each of the following compounds.
Answer with the value's number alone.

COMPOUND | total cell number
Cc1nc2c([nH]1)c(=O)n(C)c(=O)n2Cc1ccco1 | -0.322
C[C@@H]1O[C@@H](O[C@H]2[C@H](Oc3cc(O)c(C(=O)CCc4ccc(O)cc4)c(O)c3)O[C@H](CO)[C@@H](O)[C@@H]2O)[C@H](O)[C@H](O)[C@H]1O [Naringin Dihydrochalcone] | -0.984
CC(C)OC(=O)C(C(=O)OC(C)C)=C1SC=CS1 [Malotilate] | 7.42
CC(C)[C@H](NC(=O)c1ccc2ccccc2n1)C(=O)N[C@@H](CC(=O)O)C(=O)COc1c(F)cccc1F | 15.6

Next compound, please.
total cell number recorded for this compound, `CC1=C(C(=O)O)N2C(=O)[C@@H](NC(=O)[C@H](N)C3=CCC=CC3)[C@H]2SC1` , is -1.61
